// provenance: PubChem BioAssay (NCI)

Tested on: HOP-92 NSCLC
run-description: NCI tumour cell line growth inhibition, 48 h
I'd appreciate it if you could supply TGI values for the items below.

Recorded TGI, per entry:
compound=Cc1cc(C)nc(NS(=O)(=O)c2ccc(NNC(=O)c3cccc4c(NNc5ccc(S(=O)(=O)Nc6nc(C)cc(C)n6)cc5)c5ccccc5nc34)cc2)n1 result="70.3 µM"
compound=O=C1c2cccc3cccc(c23)C(=O)N1CCCCN1CCN(CCCCOc2ccc(-c3nc4ccc(N5CCOCC5)cc4[nH]3)cc2)CC1 result="> 100 µM"
compound=O=C1CCCC(=O)C1=C(O)CCCCCCCCCCc1ccccc1 result="39.6 µM"
compound=O=c1c[n+](-c2ccccc2)[nH]o1 result="> 100 µM"
compound="COc1cccc(C2C(C(=O)O)=C(CO)Oc3cc4c(cc32)OCO4)c1 (stereo not given)" result="> 100 µM"

Would you mind giving TGI for every compound in the list below?
1. c1ccc2c(c1)CCN1CCc3c([nH]c4ccccc34)C21 (stereo not given)
2. COc1ccc(C(=O)Cn2c(C(C)=O)nc3ccccc32)cc1
3. Cc1ccc(NC(=O)COC(=O)c2cccc3c(=O)c4ccccc4[nH]c23)cc1
4. O=C1/C(=C/c2ccc([N+](=O)[O-])o2)Oc2ccccc21
5. COc1cc(C(=O)N2CCN(c3ccccc3OC)CC2)c(N)cc1OCc1ccccc1

1. 72.2 µM
2. > 100 µM
3. > 100 µM
4. 2.62 µM
5. 43.4 µM

----------
Give measured TGI for each item. Keep answers brief.
Test system: KM12 colon
run-description: NCI tumour cell line growth inhibition, 48 h
Numbers only, in µM.

compound=CCOC(=O)N[C@H]1CCc2cc(O)c(OC)c(OC)c2-c2ccc(SC)c(=O)cc21 numeric_readout=0.413

Please state, for each entry, its recorded TGI.
1. Cc1cc(C)nc(NS(=O)(=O)c2ccc(NNC(=O)c3cccc4c(NNc5ccc(S(=O)(=O)Nc6nc(C)cc(C)n6)cc5)c5ccccc5nc34)cc2)n1
2. BrCCC[P+](c1ccccc1)(c1ccccc1)c1ccccc1
3. CCN(CC)c1nc(N(C)C)c2ccc(OC)cc2n1
4. O=C1/C(=C/c2ccc(Cl)cc2)CN(Cc2cn(CCNc3ccnc4cc(Cl)ccc34)nn2)C/C1=C\c1ccc(Cl)cc1
5. NC(N)=NS(=O)(=O)c1ccc(Nc2c3ccccc3nc3c(C(=O)NC(CO)(CO)CO)cccc23)cc1
6. Cc1cc(NCCCCNc2ccnc3cc(Cl)ccc23)nc(Nc2ccc(C(=O)N3CCCC3)cc2)n1

1. 35.6
2. 58.1
3. 48.2
4. 0.496
5. 38.5
6. 11.3

Quick batch: TGI for everything below.
1. COC(=O)c1cc(-c2ccc(-c3ccc(O)cc3)cc2)cc(-c2ccc(-c3ccc(O)cc3)cc2)c1
2. CC(C)C(Sc1nc(-c2ccccc2)c(-c2ccccc2)[nH]1)C(=O)N/N=C/c1ccc([N+](=O)[O-])cc1 (stereo unspecified)

6.82
24.5

----------
Test system: 786-0 renal
run-description: NCI tumour cell line growth inhibition, 48 h
readout: TGI

Example compounds with recorded TGI:
input_smiles=O=C1c2ccccc2C(=O)c2c1oc(=O)c1ccccc21 result="14 µM"
input_smiles=CCCN1CN(c2ccccc2)C2(CCN(CCCC(=O)c3ccc(F)cc3)CC2)C1=O result="17.3 µM"
input_smiles=CCCC(=O)/C=C/S/C=C/C(=O)CCC result="4.98 µM"
input_smiles=O=c1oc2cccnc2n1CCN1CCN(c2ccc(Oc3ccccc3)cc2)CC1 result="> 100 µM"
input_smiles=O=C(CC/C(CC(=O)c1ccc(Cl)cc1)=N/O)Nc1ccc(Cl)c(Cl)c1 result="> 100 µM"

Dear colleague, could you please provide TGI for the compounds listed below?
1. C[N+](C)(C)C1(C(=O)[O-])CC1
2. CN(C)CCCNC(=O)c1cc(NC(=O)c2cc(NC(=O)[C@H]3C[C@@H]3C(=O)Nc3cc(C(=O)Nc4cc(C(=O)NCCCN(C)C)n(C)c4)n(C)c3)cn2C)cn1C
3. O=C(O)c1cncc(C(=O)O)c1
4. Cc1nc(N)sc1N=Nc1cc(Cl)c([N+](=O)[O-])cc1Cl

1: > 100 µM; 2: > 100 µM; 3: > 100 µM; 4: > 100 µM

----------
Test system: NCI-H23 lung
run-description: NCI tumour cell line growth inhibition, 48 h
readout: TGI

compound="c1ccc2c(c1)CCN1CCc3c([nH]c4ccccc34)C21 (stereo unspecified)" readout=TGI result="> 100 µM"
compound=Cc1ccc(S(=O)(=O)N/N=C/c2oc(-c3ccccc3Cl)c(-c3ccccc3Cl)c2[N+](=O)[O-])cc1 readout=TGI result="29.3 µM"
compound="O=c1[nH]c(=O)n(C2CC(O)C(CO)O2)cc1C#Cc1cc(C(F)(F)F)cc(C(F)(F)F)c1 (stereo unspecified)" readout=TGI result="> 89.3 µM"
compound=CC(=O)N1CC[N+](C)(CCCCN2c3ccccc3Sc3cc(N=[N+]=[N-])ccc32)CC1 readout=TGI result="> 100 µM"
compound=Fc1ccc(NCn2nc(COc3ccccc3Cl)n(/N=C/c3ccc(-c4ccc(Cl)cc4Cl)o3)c2=S)cc1Cl readout=TGI result="> 100 µM"

# return TGI for each item in the list
1. CCSc1nc(N2CCCCC2)c2cn[nH]c2n1
2. COP(=O)(OC)C(O)/C=C(\Cl)c1ccc(Cl)cc1 (stereo unspecified)
3. C=C(C)[C@@H]1CC[C@]2(C(=O)O)CC[C@]3(C)[C@H](CC[C@@H]4[C@@]5(C)C[C@@H](CC#Cc6ccc(Br)cc6)C(=O)C(C)(C)[C@@H]5CC[C@]43C)[C@@H]12

> 100 µM
50.8 µM
23.9 µM

I would be grateful if you could provide TGI for each of the following entries.
1. O=C(N/N=c1/ccoc2cccnc12)N1CCN(c2ncccn2)CC1
2. O=C(CC(O)c1ccncc1)c1ccccc1 (stereo unspecified)
3. COc1ccc(C(=O)Cn2c(C(C)=O)nc3ccccc32)cc1
4. O=C1Nc2ccccc2/C1=C/c1ccccc1
5. COc1cc(CNC(=O)[C@H](Cc2ccc(O)cn2)NC(C)=O)cc(OC)c1
6. O=C1CSC(=S)N1Cc1cccnc1
7. CCOP(=O)(OCC)/C(C#N)=C/c1ccc[nH]1

16.7 µM
> 100 µM
> 100 µM
42.7 µM
> 100 µM
48 µM
> 100 µM

So what does the record say about TGI for COc1cc(-n2cc(-c3ccc(F)cc3)[nH]c2=S)cc(OC)c1OC ? > 100 µM

----------
Provide the recorded GI50 for the entries that follow.
Test system: SN12C renal
run-description: NCI tumour cell line growth inhibition, 48 h

# example entries with known answers
input_smiles=O=c1oc2ccc(F)cc2c(=O)n1-c1ccc(Cl)cc1F readout=GI50 result="495 nM"
input_smiles=N#Cc1c(NC(=O)c2cccc3ccccc23)sc2c1CCCC2 readout=GI50 result="157 nM"
input_smiles=O=C(Nc1cccnc1)c1cccc([N+](=O)[O-])c1 readout=GI50 result="> 100000 nM"
input_smiles=COc1ccc(Cn2cnc3cc(C(=O)Nc4cccc5ccccc45)ccc32)c(OC)c1 readout=GI50 result="69.1 nM"
input_smiles=CCOCC(=O)N[C@H]1CCc2cc(OC(=O)COCC)c(OC)c(OC)c2-c2ccc(SC)c(=O)cc21 readout=GI50 result="55.4 nM"
input_smiles=CC(C)=CCc1ccc(O)c(=O)cc1C(C)C readout=GI50 result="844 nM"
input_smiles=COc1ccc(/C(=N\O)c2cc(OC)c(OC)c(OC)c2)c(OC)c1N readout=GI50 result="7900 nM"
input_smiles=O=c1[nH]ccc2nc(-c3ccc(CN4CCC(c5nc(-c6ccccn6)n[nH]5)CC4)cc3)c(-c3ccccc3)cc12 readout=GI50 result="32100 nM"
input_smiles=O=C1Nc2ccccc2/C1=C/c1cn(C(=O)c2c(Cl)cccc2Cl)c2ccccc12 readout=GI50 result="4000 nM"
input_smiles=COc1cc(OC)c2cc(C(=O)O)c(=O)oc2c1 readout=GI50 result="> 100000 nM"

Required: GI50, one value per compound below.
1. COc1cc(-n2cc(-c3ccc(F)cc3)[nH]c2=S)cc(OC)c1OC
2. COc1cc(C(=O)/C=C/c2c(-c3ccc(F)cc3)nc3ncccn23)cc(OC)c1OC
3. CCN(CC)CCCNc1nc2ccccc2c2c(=O)c3cc(Cl)ccc3sc12
4. COc1ccc(N(C)c2nc(Cl)nc3ccn(C)c23)cc1
5. COc1cc2c(cc1OCCCCCn1c(-c3ccco3)nc3ccccc31)N=C[C@@H]1CCCN1C2=O
6. CN1C(=O)c2cc([N+](=O)[O-])ccc2[C@H]2C(=O)c3cc4c(cc3[C@H]21)OCO4
7. Cc1ccc(/C=C/C(=O)c2ccc(N)cc2)c(C)c1
8. CCCCCCCCCCCCCCCCOC(=O)c1c(C)[nH]c(/C=C2\N=C(c3ccc[nH]3)C=C2OC)c1C

["> 100000 nM", "2260 nM", "3680 nM", "< 10 nM", "< 10 nM", "38.6 nM", "1950 nM", "1640 nM"]
